target: Ataxin-2 (Homo sapiens); experiment: qHTS for Inhibitors of ATXN expression.; format: functional
The campaign covered roughly 400,000 compounds. About 2,100 (0.53%) were called active. Roughly 14% stayed inconclusive and do not appear here. The rule behind the calls is not given here. Shown is part of a subset that was picked to be rich in actives.
Write down the outcome that applies. Available outcomes: active, inactive

Reference set (3 entries):
{"columns": ["Compound", "Target", "Category Label"],
 "data": [
  ["O=C(c1cccc(F)c1)N1CCCC(C(=O)N2CCN(c3ccccc3)CC2)C1 (centres undefined)", "Ataxin-2 (Homo sapiens)", "inactive"],
  ["O=C(C1CCN(c2ncnc3c2nc2n3CCCCC2)CC1)N1CCN(c2ccc(F)cc2)CC1", "Ataxin-2 (Homo sapiens)", "active"],
  ["COCCn1c(-c2ccc(-c3ccc([N+](=O)[O-])cc3Br)o2)nc2c1c(=O)[nH]c(=O)n2CC(C)C", "Ataxin-2 (Homo sapiens)", "inactive"]
]}

Data request: For Clc1cccc(N2CCN(c3ncnc4c3nc3n4CCCCC3)CC2)c1 , what call appears in the results of this test?
Data returned: active

====

target: Ataxin-2 (Homo sapiens); test: qHTS for Inhibitors of ATXN expression.; type: functional
In all, about 400,000 compounds went through this assay and about 2,100 (0.53%) were called active. About 14% were inconclusive and are not listed. How the calls were made is not given here. What follows is part of a selection rich in actives, with near analogues and random picks from the rest.
Write down the outcome that applies. Available outcomes: active, inactive

Reference set (5 entries):
{"columns": ["Compound", "Category Label"],
 "data": [
  ["O=C(Nc1nc2n(n1)C(c1ccccc1)C=C(c1ccc(Cl)cc1)N2)c1ccco1 (stereo unspecified)", "inactive"],
  ["Cc1ccc(-c2nc(NCc3ccco3)n(S(C)(=O)=O)n2)cc1", "inactive"],
  ["OCCNc1nc(Nc2ccc(Br)cc2)nc2ccccc12", "inactive"],
  ["COc1ccc(OC)c(Nc2nc(-c3ccccc3O)nc3ccccc23)c1", "inactive"],
  ["CCc1c(C)c2cc(Cl)c(O)c(CN(CC)CC)c2oc1=O", "inactive"]
]}

Let us examine a further case.
Data request: For CCOC(=O)N(C)c1c(CC)nc2c(OCc3ccc(Cl)cc3)cccn12 , what call appears in the results of this test?
Data returned: active

====

biological target: Ataxin-2 (Homo sapiens) (UniProt Q99700); assay: qHTS for Inhibitors of ATXN expression.; assay type: functional
Sequence (Q99700 whole entry): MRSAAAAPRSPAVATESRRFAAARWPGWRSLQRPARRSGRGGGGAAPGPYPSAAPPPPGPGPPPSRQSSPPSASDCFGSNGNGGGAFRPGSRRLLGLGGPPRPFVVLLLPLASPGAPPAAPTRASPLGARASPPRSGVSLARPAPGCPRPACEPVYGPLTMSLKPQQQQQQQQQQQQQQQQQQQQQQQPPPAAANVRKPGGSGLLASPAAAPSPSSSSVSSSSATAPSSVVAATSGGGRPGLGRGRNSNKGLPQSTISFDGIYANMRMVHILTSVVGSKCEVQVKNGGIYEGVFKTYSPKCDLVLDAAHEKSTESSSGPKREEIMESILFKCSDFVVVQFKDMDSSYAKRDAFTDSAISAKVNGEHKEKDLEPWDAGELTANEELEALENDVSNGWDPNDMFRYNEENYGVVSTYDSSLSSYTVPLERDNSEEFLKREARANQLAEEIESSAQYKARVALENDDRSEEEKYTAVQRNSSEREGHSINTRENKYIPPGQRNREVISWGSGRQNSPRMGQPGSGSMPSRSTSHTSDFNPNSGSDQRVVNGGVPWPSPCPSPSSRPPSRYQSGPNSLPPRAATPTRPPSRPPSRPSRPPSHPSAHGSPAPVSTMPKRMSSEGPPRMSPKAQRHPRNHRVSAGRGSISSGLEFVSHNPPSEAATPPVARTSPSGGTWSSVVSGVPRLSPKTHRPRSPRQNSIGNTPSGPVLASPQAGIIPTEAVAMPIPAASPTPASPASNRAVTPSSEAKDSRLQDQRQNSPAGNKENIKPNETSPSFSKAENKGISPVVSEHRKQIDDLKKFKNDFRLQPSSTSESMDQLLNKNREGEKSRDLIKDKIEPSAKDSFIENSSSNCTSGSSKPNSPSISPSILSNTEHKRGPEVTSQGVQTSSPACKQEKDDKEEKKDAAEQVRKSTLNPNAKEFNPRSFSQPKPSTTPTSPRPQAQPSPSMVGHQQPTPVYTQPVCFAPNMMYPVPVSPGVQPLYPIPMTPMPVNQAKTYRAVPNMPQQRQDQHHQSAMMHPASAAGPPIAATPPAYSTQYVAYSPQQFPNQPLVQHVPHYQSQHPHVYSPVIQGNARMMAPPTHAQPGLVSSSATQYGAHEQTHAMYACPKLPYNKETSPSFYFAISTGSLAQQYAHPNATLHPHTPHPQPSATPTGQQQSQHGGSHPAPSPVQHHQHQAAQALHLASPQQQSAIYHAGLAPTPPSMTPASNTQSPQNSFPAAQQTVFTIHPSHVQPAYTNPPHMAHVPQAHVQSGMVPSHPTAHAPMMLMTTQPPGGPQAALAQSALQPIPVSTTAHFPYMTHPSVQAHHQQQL
The campaign covered roughly 400,000 compounds. About 2,100 (0.53%) were called active. Another 14% or so got no clear call; they are omitted. How the calls were made is not given here. The list comes from a sample in which actives are over-represented; it also holds close analogues and randomly drawn compounds.
Write down the outcome that applies. Available outcomes: active, inactive

Reference set (5 entries):
{"columns": ["Compound", "Category Label"],
 "data": [
  ["Cc1c(CCC(=O)NC2CC2)c(=O)oc2c(C)c(O)ccc12", "inactive"],
  ["COc1cc(/C=C2\\COC/C(=C\\c3ccc(O)c(OC)c3)C2=O)ccc1O", "active"],
  ["CCc1cc2c(CN3CCN(CC)CC3)cc(=O)oc2cc1O", "inactive"],
  ["CCOc1cc(C2C3=C(CCCC3=O)N(CCC(=O)O)C3=C2C(=O)CCC3)ccc1OS(=O)(=O)c1ccc(C)cc1", "inactive"],
  ["CCOC(=O)C1=C(N)Oc2cc(O)ccc2C1c1ccc(F)cc1F (stereo not given)", "inactive"]
]}

Data request: For Cc1c(O)ccc2c(-c3ccccc3)cc(=O)oc12 , what call appears in the results of this test?
Data returned: inactive

Data request: What do we get for CC(C)C(C)(C#N)NC(=O)CSc1nnc(C(F)(F)F)n1C (stereo not given) ?
Data returned: inactive

Data request: What do we get for Cc1nc(N/C(N)=N/C(=O)NC2CCCCC2)nc2ccccc12 ?
Data returned: active

Data request: What do we get for COc1ccc(Cc2nnc(S)n2NC(=O)Nc2ccc(C)cc2)cc1 ?
Data returned: inactive

Data request: What do we get for CN(C)CCNC(=O)c1cccc(-c2cnc3c(NC=O)cc(-c4cccc(F)c4)cn23)c1 ?
Data returned: active

Data request: What do we get for Cc1c(N=C2C=C(Br)C(=O)C(Br)=C2)c(=O)n(-c2ccccc2)n1C ?
Data returned: inactive

Data request: What do we get for COc1ccccc1C(=O)NCCC(=O)N1CCN(S(=O)(=O)c2cccc(Cl)c2)CC1 ?
Data returned: inactive

Data request: What do we get for Cc1c(/N=C2\C=CC(=O)c3ccccc32)c(=O)n(-c2ccccc2)n1C ?
Data returned: inactive

Data request: What do we get for Cc1ccc(S(=O)(=O)Nc2ccccc2/C=N/c2nc3ccccc3n2C)cc1 ?
Data returned: inactive

Data request: What do we get for COc1ccc(CC(N)c2csc(NC(=O)Nc3ccc(C(C)C)cc3)n2)cc1 (stereo not given) ?
Data returned: active

Data request: What do we get for CN(C)C(=O)c1cccc(-c2cnc3c(NC=O)cc(-c4cccc(C(F)(F)F)c4)cn23)c1 ?
Data returned: active

Data request: What do we get for CCOc1cc(/C=C2\C(=N)N3N=C(CC(=O)N4CCCCC4)SC3=NC2=O)ccc1O ?
Data returned: inactive

Data request: What do we get for CC1(C(=O)Nc2cccc3ccccc23)CC1(Br)Br (stereo not given) ?
Data returned: inactive

Data request: What do we get for CC(C)CN(C(=O)CN1CCCCCC1)c1c(N)n(CC(C)C)c(=O)[nH]c1=O ?
Data returned: inactive

Data request: What do we get for CC(C)[C@H](NS(=O)(=O)c1ccccc1F)C(=O)NC1CCCCC1 ?
Data returned: inactive

Data request: What do we get for C=CCn1c(SCC(=O)NC2CCCCC2)nc2ccccc2c1=O ?
Data returned: inactive

Data request: What do we get for COC(=O)c1cc2c(=O)c3ccccc3oc2nc1/C=C/N(C)C ?
Data returned: inactive

Data request: What do we get for CCCOC(=O)c1c(NC(=O)c2nc3ncccn3n2)sc(C(N)=O)c1C ?
Data returned: inactive

Data request: What do we get for COc1ccc(OCC(=O)Nc2nccs2)cc1 ?
Data returned: inactive

Data request: What do we get for COc1cccc(-n2c(C)cc(/C=C3/C(=N)N4C(=NC3=O)SN=C4S(C)(=O)=O)c2C)c1 ?
Data returned: inactive

====

target: Ataxin-2 (Homo sapiens); experiment: qHTS for Inhibitors of ATXN expression.; format: functional
Hit rate of the full screen: of about 400,000 compounds, about 2,100 (0.53%) were called active. Not shown: some 14% with an inconclusive outcome. The entries come from a sample that favours actives as a whole.
Property Name: Potency

// solved cases for Potency follow
{"columns": ["Compound", "Target", "Observed"],
 "data": [
  ["O=[N+]([O-])c1ccc(C2=CSC3=NCCN23)cc1", "Ataxin-2 (Homo sapiens)", "inactive"],
  ["COc1ccc(NC(=O)NS(=O)(=O)c2ccc(C)cc2)cn1", "Ataxin-2 (Homo sapiens)", "inactive"],
  ["O=C(NCCOc1ccccc1Cl)c1cccc2c1C(=O)c1ccc(Cl)cc1S2(=O)=O", "Ataxin-2 (Homo sapiens)", "35.5 µM (active)"],
  ["CCC(C)[C@@H](NC(=O)OC(C)(C)C)c1nnc(S(=O)(=O)Cc2cccc(C)c2)o1 (some centres undefined)", "Ataxin-2 (Homo sapiens)", "22.4 µM (active)"]
]}

Data request: Dear colleague, I am looking for the recorded Potency of the following compound: CN=C(S)N1N=C(c2ccc(C)cc2)CC1c1ccc(N(C)C)cc1 (centres undefined)
Data returned: inactive

Data request: What do we get for CC[C@@H](C)[C@H](NC(=O)OC(C)(C)C)c1nnc(S(=O)(=O)Cc2cc(C)ccc2C)o1 ?
Data returned: 39.8 µM (active)

Data request: What do we get for O=C1c2cccc3c([N+](=O)[O-])ccc(c23)C(=O)N1c1ccc(Cl)cn1 ?
Data returned: inactive

Data request: What do we get for CCS(=O)(=O)c1ncc(Cl)c(C(=O)Nc2ccc(C)cc2)n1 ?
Data returned: 35.5 µM (active)

====

target: Ataxin-2 (Homo sapiens); experiment: qHTS for Inhibitors of ATXN expression.; type: functional
Hit rate of the full screen: of about 400,000 compounds, about 2,100 (0.53%) were called active. Inconclusive results (about 14%) are left out. How the calls were made is not given here. The full list was thinned out, with actives kept by preference.
Write down the outcome that applies. Available outcomes: class 1 = active, class 0 = inactive

Reference set (4 entries):
{"columns": ["Compound", "Category Label"],
 "data": [
  ["CCOC(=O)c1c(-c2ccc(C)cc2)csc1NC(=O)/C(C#N)=C/c1ccc(O)c(OC)c1", "class 0"],
  ["CCc1nnc(NS(=O)(=O)c2ccc(N/C=C/C(=O)c3ccc(C)cc3)cc2)s1", "class 0"],
  ["O=[N+]([O-])c1ccc(Sc2cccc[n+]2[O-])c2nonc12", "class 1"],
  ["CCOC(=O)c1c(-c2ccc(C)o2)csc1NC(=S)NC(=O)N(C)C", "class 1"]
]}

Let us examine a further case.
Data request: For Cc1ccc(C(=O)C(C)[n+]2cccc(C(N)=O)c2)cc1 (stereo not given) , what call appears in the results of this test?
Data returned: class 0
